Where do the numbers come from? From patent US20210205264A1.

design: species or system humans; details: human, in vivo, po

>  <Line notation>
CC(C)=CCC/C(C)=C/CC/C(C)=C/CC[C@]1(C)CCc2cc(O)cc(C)c2O1

>  <Cmax>
≤ 17 µM

$$$$
